Experiment: Pharmacokinetic analysis of blood samples after oral brigimadlin
Assay type: in vivo, human
Conditions: human, plasma, oral, 80 mg

compound: Cc1c(C(=O)O)ccc2c3n(nc12)[C@@H]1[C@H](C3)N(CC2CC2)[C@@]2(C(=O)Nc3cc(Cl)ccc32)[C@H]1c1cccc(Cl)c1F [brigimadlin]
Cmax: 4.8 µM

Just for reference, paper PMC10401071 is where these values come from.
